Quick reference for growth inhibition among some molecules
Procedure Details: NCI Yeast Anticancer Drug Screen. Data for the mlh1 rad18 strain (AID 175)
Particulars: S. cerevisiae mlh1 rad18 strain growth inhibition; at 50.0 µM; hits give high values
Method: Growth inhibition of yeast strains with defined genetic alterations is measured as a screen for potential anti-cancer activity. Selected strains with alterations in DNA damage repair or cell cycle control were exposed to compounds and growth inhibition was measured relative to vehicle treated controls. The strain used in this assay is mlh1 rad18
This is part of a sample that, as a whole, favours compounds with a hit. Of some 79,000 tested, about 15% had one in any assay.
The figure you give is taken to be in %; do not add the unit.

Look up growth inhibition: CCCCCc1ccc2oc(=O)c3ccc(C)cc3c2c1O -5.6

Look up growth inhibition: Brc1ccc(C2CC(c3cccc4ccccc34)=Nc3ccccc3S2)cc1 (configuration not stated) 18.1

Look up growth inhibition: CCOC(=O)c1c[nH]c2c(Cl)c(C)ccc2c1=O -4.75
